- TARGET_OR_SYSTEM: PD-1/PD-L1 (Homo sapiens (Human))
- PROTOCOL_TEXT: PD-1/PD-L1 biochemical protein-protein interaction assay (ALPHA)
- MEASUREMENT_SETUP: 0.3 nM His tagged PD-L1, 2.5 nM biotinylated Fc-PD-1, 60 minutes at 25° C., read-out: IC50 PD-L1-PD1
RESULT_TYPE: IC50 (nM)

- COMPOUND: "COc1nc(-c2cccc(-c3cccc(-c4cnc(CN5CC6(CNC(=O)N6)C5)c(OC)n4)c3Cl)c2Cl)cnc1CNC[C@H]1CCC(=O)N1 [compound 207]"
  TARGET_OR_SYSTEM: "PD-1/PD-L1 (Homo sapiens (Human))"
  RESULT_TYPE: "IC50"
  MEASUREMENT_UNIT: "nM"
  RECORDED_RESULT: 0.104
- COMPOUND: "COc1nc(-c2cccc(-c3cccc(-c4ccc5c(CN6CC7(CNC(=O)C7)C6)cn(C)c5n4)c3Cl)c2Cl)cnc1CN1CC2(CNC(=O)C2)C1 [compound 493]"
  TARGET_OR_SYSTEM: "PD-1/PD-L1 (Homo sapiens (Human))"
  RESULT_TYPE: "IC50"
  MEASUREMENT_UNIT: "nM"
  RECORDED_RESULT: 0.109
- COMPOUND: "COc1nc(-c2cccc(-c3cccc(-c4cnc(CNC[C@@H]5CC(C)(C)C(=O)N5)c(OC)n4)c3Cl)c2Cl)cnc1CNC[C@@H]1CCC(=O)N1 [compound 245]"
  TARGET_OR_SYSTEM: "PD-1/PD-L1 (Homo sapiens (Human))"
  RESULT_TYPE: "IC50"
  MEASUREMENT_UNIT: "nM"
  RECORDED_RESULT: 0.15

----------
# pIC50 listing for each entry below
- TARGET_OR_SYSTEM: PD-1/PD-L1 (Homo sapiens (Human), UniProt Q9NZQ7)
- Sequence (Q9NZQ7 19-238): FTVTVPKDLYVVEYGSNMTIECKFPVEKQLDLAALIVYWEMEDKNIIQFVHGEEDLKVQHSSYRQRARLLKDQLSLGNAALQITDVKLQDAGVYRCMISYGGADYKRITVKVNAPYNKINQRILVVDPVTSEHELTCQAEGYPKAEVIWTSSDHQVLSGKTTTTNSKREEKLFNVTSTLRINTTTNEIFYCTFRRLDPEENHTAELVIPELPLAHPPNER
- PROTOCOL_TEXT: PD-1/PD-L1 biochemical protein-protein interaction assay (ALPHA)
- MEASUREMENT_SETUP: 0.3 nM His tagged PD-L1, 2.5 nM biotinylated Fc-PD-1, 60 minutes at 25° C., read-out: IC50 PD-L1-PD1
pIC50: −log10 of the molar value.
RESULT_TYPE: pIC50

- SMILES_ENTRY: "COc1nc(-c2cccc(-c3cccc(-c4cnc(CNC[C@@H]5CCC(=O)N5)c(OC)n4)c3Cl)c2Cl)cnc1CNCc1cnn(CCO)c1"
  RECORDED_RESULT: 10.22
- SMILES_ENTRY: "COc1nc(-c2cccc(-c3cccc(-c4cnc(CN[C@@H]5CC[C@@H]6CC(=O)N[C@@H]65)c(OC)n4)c3Cl)c2Cl)cnc1CNC[C@@H]1CCC(=O)N1"
  RECORDED_RESULT: 9.20
- SMILES_ENTRY: "COc1nc(-c2cccc(-c3cccc(-c4cnc(CN5CC(O)C5)c(OC)n4)c3Cl)c2Cl)ccc1C1=NCCN1"
  RECORDED_RESULT: 10.19
- SMILES_ENTRY: "COc1nc(-c2cccc(-c3cccc(-c4cnc(CNC[C@@H]5CCC(=O)N5)c(OC)n4)c3Cl)c2Cl)ccc1CNCc1ccc2[nH]c(C)cc2c1"
  RECORDED_RESULT: 8.78
- SMILES_ENTRY: "COc1nc(-c2cccc(-c3cccc(-c4cnc(CN[C@H]5C[C@@H](S(C)(=O)=O)C5)c(OC)n4)c3Cl)c2Cl)cnc1CNC[C@@H]1CCC(=O)N1"
  RECORDED_RESULT: 9.85
- SMILES_ENTRY: "COc1nc(-c2cccc(-c3cccc(-c4cnc(CNC[C@@H]5CCC(=O)N5)c(OC)n4)c3Cl)c2Cl)ccc1CN[C@@H]1CNC(=O)C1"
  RECORDED_RESULT: 9.58

----------
# pIC50 listing for each entry below
- TARGET_OR_SYSTEM: PD-1/PD-L1 (Homo sapiens (Human), UniProt Q9NZQ7)
- PROTOCOL_TEXT: PD-1/PD-L1 biochemical protein-protein interaction assay (ALPHA)
- MEASUREMENT_SETUP: 0.3 nM His tagged PD-L1, 2.5 nM biotinylated Fc-PD-1, 60 minutes at 25° C., read-out: IC50 PD-L1-PD1
pIC50: −log10 of the molar value.
RESULT_TYPE: pIC50

- COMPOUND: "COc1nc(-c2cccc(-c3cccc(-c4cnc(CNC[C@@H]5CCC(=O)N5)c(OC)n4)c3Cl)c2Cl)cnc1CNCC1CCC(C(N)=O)O1 (stereo partly drawn)"
  RECORDED_RESULT: 10.05
- COMPOUND: "COc1nc(-c2cccc(-c3cccc(-c4cnc(CN5CC6(CNC(=O)C6)C5)c(OC)n4)c3Cl)c2Cl)cnc1CN1CC2(CNC(=O)C2)C1"
  RECORDED_RESULT: 9.49
- COMPOUND: "COc1nc(-c2cccc(-c3cccc(-c4cnc(CN[C@@H]5CCOC[C@H]5C)c(OC)n4)c3Cl)c2Cl)cnc1CNC[C@@H]1CCC(=O)N1"
  RECORDED_RESULT: 9.23

----------
- TARGET_OR_SYSTEM: PD-1/PD-L1 (Homo sapiens (Human), UniProt Q9NZQ7)
- PROTOCOL_TEXT: PD-1/PD-L1 biochemical protein-protein interaction assay (ALPHA)
- MEASUREMENT_SETUP: 0.3 nM His tagged PD-L1, 2.5 nM biotinylated Fc-PD-1, 60 minutes at 25° C., read-out: IC50 PD-L1-PD1
# IC50 listing for each entry below

- SMILES_ENTRY: "COc1nc(-c2cccc(-c3cccc(-c4cnc(CNCC(C)(C)O)c(OC)n4)c3Cl)c2Cl)cnc1CNC[C@@H]1CCC(=O)N1"
  IC50, nM: 0.396
- SMILES_ENTRY: "COc1nc(-c2cccc(-c3cccc(-c4cnc(CNC[C@@H]5CC(C)(C)C(=O)N5)c(OC)n4)c3Cl)c2Cl)cnc1CNC[C@@H]1CC(C)(C)C(=O)N1"
  IC50, nM: 0.08
- SMILES_ENTRY: "COc1nc(-c2cccc(-c3cccc(-c4cnc(CN5CC(NC(C)=O)C5)c(OC)n4)c3Cl)c2Cl)cnc1CNC[C@@H]1CCC(=O)N1"
  IC50, nM: 0.078

----------
# IC50 listing for each entry below
- TARGET_OR_SYSTEM: PD-1/PD-L1 (Homo sapiens (Human), UniProt Q9NZQ7)
- PROTOCOL_TEXT: PD-1/PD-L1 biochemical protein-protein interaction assay (ALPHA)
- MEASUREMENT_SETUP: 0.3 nM His tagged PD-L1, 2.5 nM biotinylated Fc-PD-1, 60 minutes at 25° C., read-out: IC50 PD-L1-PD1
- Experimental: Binding of the protein pairs is measured using a bead based Amplified Luminescent Proximity Homogeneous Assay (ALPHA) platform. […] After an assay reaction time of 60 minutes at 25° C., binding was measured with addition of 20 μg/mL ALPHA assay acceptor beads (anti-His coated) and 20 µg/mL ALPHA assay donor beads (streptavidin coated). IC50 values were calculated from the fit of the dose-response curves to a four-parameter equation.
RESULT_TYPE: IC50 (nM)

- SMILES_ENTRY: "O=C1CC2(CN1)CN(Cc1ncc(-c3cccc(-c4cccc(-c5cnc(CN6CC7(CNC(=O)C7)C6)c(Cl)n5)c4Cl)c3Cl)nc1Cl)C2"
  RECORDED_RESULT: 0.586
- SMILES_ENTRY: "COc1nc(-c2cccc(-c3cccc(-c4cnc(CNC[C@@H]5CCC(=O)N5)c(OC)n4)c3Cl)c2Cl)ccc1CN[C@H]1CCNC1=O"
  RECORDED_RESULT: 0.344
- SMILES_ENTRY: "COc1nc(-c2cccc(-c3cccc(-c4cnc(CN5CC(O)C5)c(OC)n4)c3F)c2Cl)ccc1CN1CC(O)C1"
  RECORDED_RESULT: 0.178

----------
- TARGET_OR_SYSTEM: PD-1/PD-L1 (Homo sapiens (Human), UniProt Q9NZQ7)
- PROTOCOL_TEXT: PD-1/PD-L1 biochemical protein-protein interaction assay (ALPHA)
- MEASUREMENT_SETUP: 0.3 nM His tagged PD-L1, 2.5 nM biotinylated Fc-PD-1, 60 minutes at 25° C., read-out: IC50 PD-L1-PD1
pIC50: −log10 of the molar value.
RESULT_TYPE: pIC50

- MOLECULE: "COc1nc(-c2cccc(-c3cccc(-c4cnc(CN5C[C@@H](O)[C@@H](O)C5)c(OC)n4)c3Cl)c2Cl)cnc1CNC[C@@H]1CCC(=O)N1"
  TARGET_OR_SYSTEM: "PD-1/PD-L1 (Homo sapiens (Human), UniProt Q9NZQ7)"
  RESULT_TYPE: "pIC50"
  RECORDED_RESULT: 9.94
- MOLECULE: "COc1nc(-c2cccc(-c3cccc(-c4cnc(CN[C@H]5C[C@H](C(C)(C)O)C5)c(OC)n4)c3Cl)c2Cl)cnc1CNC[C@@H]1CCC(=O)N1"
  TARGET_OR_SYSTEM: "PD-1/PD-L1 (Homo sapiens (Human), UniProt Q9NZQ7)"
  RESULT_TYPE: "pIC50"
  RECORDED_RESULT: 9.94
- MOLECULE: "COc1nc(-c2cccc(-c3cccc(-c4cnc5c(CN6CC7(C6)CN(C(C)=O)C7)cn(C)c5c4)c3Cl)c2Cl)cnc1CN1CC2(C1)CN(C(C)=O)C2"
  TARGET_OR_SYSTEM: "PD-1/PD-L1 (Homo sapiens (Human), UniProt Q9NZQ7)"
  RESULT_TYPE: "pIC50"
  RECORDED_RESULT: 10.00
- MOLECULE: "CNc1nc(-c2cccc(-c3cccc(-c4cnc(CN)c(NC)n4)c3Cl)c2Cl)cnc1CN"
  TARGET_OR_SYSTEM: "PD-1/PD-L1 (Homo sapiens (Human), UniProt Q9NZQ7)"
  RESULT_TYPE: "pIC50"
  RECORDED_RESULT: 8.17
- MOLECULE: "COc1nc(-c2cccc(-c3cccc(-c4cnc(CNCCO)c(OC)n4)c3Cl)c2Cl)cnc1CNCCO"
  TARGET_OR_SYSTEM: "PD-1/PD-L1 (Homo sapiens (Human), UniProt Q9NZQ7)"
  RESULT_TYPE: "pIC50"
  RECORDED_RESULT: 9.59
- MOLECULE: "COc1nc(-c2cccc(-c3cccc(-c4cnc(CN5CCC(c6ncccn6)C5)c(OC)n4)c3Cl)c2Cl)cnc1CNC[C@@H]1CCC(=O)N1 (stereo partly drawn)"
  TARGET_OR_SYSTEM: "PD-1/PD-L1 (Homo sapiens (Human), UniProt Q9NZQ7)"
  RESULT_TYPE: "pIC50"
  RECORDED_RESULT: 9.86
